The measurements presented in this section are drawn from patent US7034044B2.

Give melting point for every item shown.

> print(dat)
                                   compound       observed.result
1             COc1ccc(C=Cc2cccc(N)n2)cc1.Cl         224 to 226 °C
2                Cl.Nc1cccc(C=Cc2ccccc2F)n1              > 250 °C
3  Nc1ccnc(C2=Cc3ccsc3CC2)c1.O=C(O)/C=C/C(=O)O         199 to 200 °C
4  Cc1cc(N)cc(C2=Cc3ccccc3C(C)C2)n1.O=C(O)/C=C/C(=O)O (racemic)  183 to 185 °C (dec.)
5  Cc1cnc(C2=Cc3ccccc3C(C)C2)cc1N.O=C(O)/C=C/C(=O)O (racemic)         210 to 211 °C

Please give melting point, item by item, for the list that follows.
1. Nc1ccnc(/C=C/c2ccccc2)c1 [Example 16, trans-2-Styryl-pyridin-4-yl-amine]
2. CNc1cccc(/C=C/c2ccccc2)n1.Cl
3. Cc1ccc(C)c2c1C=C(c1cc(N)ccn1)CC2.O=C(O)/C=C/C(=O)O

["164 to 165 °C", "157 to 158 °C", "232 to 233 °C"]
